// each record: one item and its IC50 for GST-tagged wild-type human CRBN protein (Homo sapiens (Human))
attribute.measured: IC50 (nM)

molecule="O=C1CC[C@H](N2Cc3c(ccc4c3OCC(COCc3ccccc3)O4)C2=O)C(=O)N1 (stereo in doubt) [Compound B1]" numeric_result=300

[P] O=C1CC[C@H](N2Cc3c(ccc4c3O[C@@H](CO)CO4)C2=O)C(=O)N1 [Compound B6]
[Q] O=C1CCC(N2C(=O)c3cc4c(cc3C2=O)OC(CO)CO4)C(=O)N1 (centres unmarked) [Compound B15]
[R] O=C1CC[C@H](N2Cc3c(ccc4c3OC[C@H](CO)O4)C2=O)C(=O)N1 [Compound B4]
[S] O=C1CC[C@H](N2Cc3cc4c(cc3C2=O)OC[C@H](COCc2ccccc2)O4)C(=O)N1 [Compound B12]
## Input Task field, ranking: reported IC50, descending order. Respond with the label ranking, as requested.
## Output Q, S, P, R

----------
Target: ER (Homo sapiens (Human), UniProt P03372)
Sequence (P03372 whole entry): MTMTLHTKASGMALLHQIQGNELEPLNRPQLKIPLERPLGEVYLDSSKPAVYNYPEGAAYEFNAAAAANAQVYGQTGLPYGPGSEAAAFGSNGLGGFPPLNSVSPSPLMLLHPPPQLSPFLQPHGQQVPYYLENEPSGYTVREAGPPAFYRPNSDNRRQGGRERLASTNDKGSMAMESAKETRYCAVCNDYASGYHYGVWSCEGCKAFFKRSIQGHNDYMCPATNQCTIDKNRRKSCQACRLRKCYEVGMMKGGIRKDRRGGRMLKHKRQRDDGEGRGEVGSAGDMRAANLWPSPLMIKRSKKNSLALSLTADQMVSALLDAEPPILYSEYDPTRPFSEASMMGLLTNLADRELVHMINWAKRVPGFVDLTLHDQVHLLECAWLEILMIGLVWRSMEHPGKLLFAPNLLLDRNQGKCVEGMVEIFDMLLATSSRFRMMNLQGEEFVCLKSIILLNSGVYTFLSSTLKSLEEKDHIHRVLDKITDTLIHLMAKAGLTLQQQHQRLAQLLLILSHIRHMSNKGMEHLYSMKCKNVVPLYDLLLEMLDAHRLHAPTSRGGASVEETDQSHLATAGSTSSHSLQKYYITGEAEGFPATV
Assay: In-Cell Western (ICW) ER degradation assay in MCF-7 and T47D cell lines
Format: cell-based
Conditions: ER level by In-Cell Western, 16 hrs treatment; MCF-7 and T47D described, cell line not given
attribute.measured: DC50

compound="O=C1CCC(N2Cc3cc4c(cc3C2=O)OC[C@H](CN2CCC3(CC2)CCN(c2ccc([C@@H]5c6ccc(O)cc6CC[C@@H]5c5ccccc5)cc2)CC3)O4)C(=O)N1 (stereo partly shown) [THP-B391]" study_target="ER (Homo sapiens (Human), UniProt P03372)" result="> 100 nM"
compound="O=C1CC[C@H](N2Cc3c(ccc4c3OC[C@H](CN3CCC5(CC3)CCN(c3ccc([C@@H]6c7ccc(O)cc7CC[C@@H]6c6ccccc6)cc3)CC5)O4)C2=O)C(=O)N1 [THP-B387]" study_target="ER (Homo sapiens (Human), UniProt P03372)" result="> 100 nM"
compound="O=C1CC[C@H](N2Cc3c(ccc4c3OC[C@@H](CN3CC5(CCN(c6ccc([C@@H]7c8ccc(O)cc8CC[C@@H]7c7ccccc7)cc6)CC5)C3)O4)C2=O)C(=O)N1 [THP-B375]" study_target="ER (Homo sapiens (Human), UniProt P03372)" result="10 to 100 nM"

// next entry
## Input Input O=C1CC[C@H](N2Cc3c(ccc4c3OC[C@@H](CN3CCC5(CC3)CCN(c3ccc([C@@H]6c7ccc(O)cc7CC[C@@H]6c6ccccc6)cc3)CC5)O4)C2=O)C(=O)N1 [THP-B370] , output reported DC50.
## Output > 100 nM
